measurement_notes: Toxicity liver stage against HepG2, at 10uM
Assay type: cell-based
Design: test concentration 10 uM, cell line HepG2-A16-CD81EGFP
measurement_parameters: human, HepG2-A16-CD81EGFP cells; read-out: INHIBITION
measure: cytotoxicity at 10 µM (%)
Answer with a number only, understood to be in %.

The value of cytotoxicity at 10 µM measured for the molecule CCc1nc(CNc2ccc(F)cc2I)no1 turned out to be 3.36

The value of cytotoxicity at 10 µM measured for the molecule CC(C)CCOCCNC(=O)Nc1cc(C(F)(F)F)c[nH]c1=O turned out to be -1.72

The value of cytotoxicity at 10 µM measured for the molecule O=C(NCc1cn2c(n1)CN(Cc1cccnc1)CC2)C1CCC1 turned out to be 6.76

The value of cytotoxicity at 10 µM measured for the molecule CSCc1ccc(N2CCC(C(O)CC(C)C)CC2)nc1 (stereo unspecified) turned out to be 11.4

The value of cytotoxicity at 10 µM measured for the molecule Cc1ccc2c(c1)SCC(=O)N2Cc1noc(C2CC2)n1 turned out to be 7.4

The value of cytotoxicity at 10 µM measured for the molecule CC(C)[C@H]1CN(Cc2ccccn2)C[C@@H]1NS(=O)(=O)C1CC1 turned out to be -0.578

====

measurement_notes: Toxicity liver stage against HepG2, at 10uM
Format: cell-based
Design: test concentration 10 uM, cell line HepG2-A16-CD81EGFP
measurement_parameters: human, HepG2-A16-CD81EGFP cells; read-out: INHIBITION
Would you mind telling me the reported cytotoxicity at 10 µM of each entry?
Answer with a number only, understood to be in %.

The value of cytotoxicity at 10 µM measured for the compound c1ccc(OC2CCCC2)c(CNC2CCc3ncnn3C2)c1 (stereo unspecified) turned out to be -5.43

The value of cytotoxicity at 10 µM measured for the compound CCc1nc(NCCCn2cccn2)c2c(n1)c(C)nn2CC turned out to be 6.36

The value of cytotoxicity at 10 µM measured for the compound CC1CN(CC(=O)NC(C2CC2)C2CC2)CCN1Cc1nccn1C (stereo unspecified) turned out to be -6.48

The value of cytotoxicity at 10 µM measured for the compound OC(CN(Cc1ccccc1)Cc1ccon1)c1ccco1 (stereo unspecified) turned out to be 4.42

The value of cytotoxicity at 10 µM measured for the compound COCc1cnc2n1CCN(C(=O)C1=CCCCC1)C2C (stereo unspecified) turned out to be -2.93

The value of cytotoxicity at 10 µM measured for the compound Cn1ccc2cc(C(=O)NC3CCS(=O)(=O)C3)ccc21 (stereo unspecified) turned out to be 0.979

====

Would you mind telling me the reported cytotoxicity at 10 µM of each entry?
measurement_notes: Toxicity liver stage against HepG2, at 10uM
Format: cell-based
Parameters: test concentration 10 uM, cell line HepG2-A16-CD81EGFP
measurement_parameters: human, HepG2-A16-CD81EGFP cells; read-out: INHIBITION
Answer with a number only, understood to be in %.

The value of cytotoxicity at 10 µM measured for the compound O=C(c1n[nH]cc1Cl)N1CCCC(n2nnc3cc(F)ccc32)C1 (stereo unspecified) turned out to be -8.55

The value of cytotoxicity at 10 µM measured for the compound COc1ccc(C(CO)NC(=O)Nc2cccc(C(C)=O)c2)cc1 (stereo unspecified) turned out to be 3.43

The value of cytotoxicity at 10 µM measured for the compound CCOC(=O)CNC(=O)NCc1cccn1Cc1ccccc1C turned out to be 4.9

The value of cytotoxicity at 10 µM measured for the compound CCn1cc(S(=O)(=O)N(C)Cc2c(Br)cnn2CC)c(C)n1 turned out to be 3.3

The value of cytotoxicity at 10 µM measured for the compound c1ccc(Oc2cc(CNCC3CNc4ccnn4C3)ccn2)cc1 (stereo unspecified) turned out to be 3.1

The value of cytotoxicity at 10 µM measured for the compound CCCOCCn1ncc(N2CCc3ccccc3C2)cc1=O turned out to be 2.63

The value of cytotoxicity at 10 µM measured for the compound CO[C@H]1CN(C(=O)c2nc(-c3ccccc3)[nH]c2C)CC[C@H]1N turned out to be 11.5

The value of cytotoxicity at 10 µM measured for the compound CS(=O)(=O)NCc1ncn2c1CN(C(=O)C1CCCCC1)CCC2 turned out to be -71.2

The value of cytotoxicity at 10 µM measured for the compound O=C(c1cccnc1-n1cncn1)N1CCN(CC2CC2)CC1 turned out to be -10.9

The value of cytotoxicity at 10 µM measured for the compound Cc1ccc(CN2CCn3c(COc4cccnc4)cnc3C2C)o1 (stereo unspecified) turned out to be -111

The value of cytotoxicity at 10 µM measured for the compound Cn1cnc(S(=O)(=O)NCC2CCN(C(=O)Oc3ccccc3)CC2)c1 turned out to be -11.1
